- EXPERIMENT NOTES: PROTAC activity at VHL/PRC2 in human HeLa cells assessed as induction of PRC2 degradation incubated for 24 hrs by Western blot analysis
- Assay type: cell-based
RESULT TYPE: EC50

> print(dat)
                         compound.structure  experimental.result
1  Cc1ncsc1-c1ccc(CNC(=O)[C@@H]2C[C@@H](O)CN2C(=O)[C@@H](NC(=O)CCCNC(=O)c2ccc(-c3cnc(NCc4ccco4)n4cnnc34)cc2)C(C)(C)C)cc1             < 700 nM

----------
- TARGET UNDER TEST: von Hippel-Lindau disease tumor suppressor/Mitogen-activated protein kinase 14 (Homo sapiens, UniProt P40337+Q16539)
- Sequence (Q16539 whole entry): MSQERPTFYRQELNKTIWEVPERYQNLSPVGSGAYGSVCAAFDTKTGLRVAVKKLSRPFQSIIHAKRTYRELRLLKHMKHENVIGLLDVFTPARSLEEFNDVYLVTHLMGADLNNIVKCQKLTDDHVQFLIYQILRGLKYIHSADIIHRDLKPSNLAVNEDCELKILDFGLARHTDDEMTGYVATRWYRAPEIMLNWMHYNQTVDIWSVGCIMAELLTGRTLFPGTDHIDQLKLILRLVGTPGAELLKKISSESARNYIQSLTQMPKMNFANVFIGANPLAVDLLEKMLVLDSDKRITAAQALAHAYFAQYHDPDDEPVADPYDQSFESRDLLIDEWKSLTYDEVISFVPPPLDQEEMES
- Sequence (P40337 whole entry): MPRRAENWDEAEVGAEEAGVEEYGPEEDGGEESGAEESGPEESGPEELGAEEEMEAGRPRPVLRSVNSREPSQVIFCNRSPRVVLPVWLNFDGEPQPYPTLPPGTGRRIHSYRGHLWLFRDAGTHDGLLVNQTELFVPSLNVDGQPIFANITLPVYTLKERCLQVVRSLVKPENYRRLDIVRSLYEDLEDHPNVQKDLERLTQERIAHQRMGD
- EXPERIMENT NOTES: PROTAC activity at VHL/p38alpha (unknown origin) assessed as dissociation constant by competitive binding assay
RESULT TYPE: Kd (µM)

COMPOUND STRUCTURE	RESULT TYPE	EXPERIMENTAL RESULT
COc1cc2c(Oc3ccc(NC(=O)C4(C(=O)Nc5ccc(F)cc5)CC4)cc3F)cccc2cc1OCCCOCCCOCCC(=O)N[C@H](C(=O)N1C[C@H](O)C[C@H]1C(=O)NCc1ccc(-c2scnc2C)cc1)C(C)(C)C	Kd	11
